Biological target: T1, UNK ZnF1-3 (human, UniProt Q9C0B0 31-174)
T1 sequence: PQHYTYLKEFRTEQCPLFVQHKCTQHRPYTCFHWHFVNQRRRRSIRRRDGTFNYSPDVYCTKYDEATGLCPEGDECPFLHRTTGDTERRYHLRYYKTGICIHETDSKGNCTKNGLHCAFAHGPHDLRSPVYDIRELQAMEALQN
Assay: nsRBNS (natural sequence RNA bind-n-seq); RBNS binding buffer (assumed for nsRBNS): 25 mM Tris pH 7.5, 150 mM KCl, 3 mM MgCl2, 0.01% Triton X-100, 500 ug/ml BSA, 20 U/ml SUPERase-In, 4 C; UNK is unkempt and MSI1 is Musashi-1; names of the RNAs are library labels; protein concentration not given here; high values mean tight binding
Whole data set: some 24,000 sequences, median “enrichment r” near 0.99, cut for the highest 2% near 3.7. Only a selection was taken, and the highest values are over-represented in it overall.
endpoint: binding signal

Sample answers from the record:
binder	binding signal
chr7:56127975:56127976:+_ENSG00000146731_ENST00000540286|hu_mus|FALSE|FALSE (ssRNA) RNA: GGGAGUUCUACAGUCCGACGAUCUGGUCCUUUAACCAGUAAAGUGACAGAACGGGGAUUGUUACACUUCUCAAUAAAGGUGAACUUCUCCUCACCCAGUGUAUACUCAUAGACAAGCUCUGCAUGUCCCAAACAGUCAGGAUUCAACAGAGGAUUGAGCAUCA	0.526 enrichment R
chr15:11317090:11317091:-_ENSMUSG00000022241_ENSMUST00000022849|mus_mus|FALSE|FALSE (ssRNA) RNA: GGGAGUUCUACAGUCCGACGAUCUUCUGUGAGGAUGGCAAUCAUUCUUUCCACCGACCCCAGGAUGGCUCUGUGAACAAUCACUGGCCUUUUCUUAUCAUCGCCAUCGUGGCUGACGUAAGUAAGGUUAAACCUGAUGGGCAACAACAGAGGAUUGAGCAUCA	1.43 enrichment R

Next:
Field binding signal (entry chr13:100193624:100193625:-_ENSMUSG00000052727_ENSMUST00000064762|mus_mus|motif|central (ssRNA) RNA: GGGAGUUCUACAGUCCGACGAUCAAACCCUCAGAGUAAAAGAGCAGUGCGAAACAUACGCUUUACAGACGAAAAUAAACGGAAAUGUAAAUUUUGAAAUAAAUAACUAACAUAGAAAAUAAAAUGAGGUCAUUGUUCACUACCCAACAGAGGAUUGAGCAUCA ) reads 4.16 enrichment R
